This collection of values is drawn from ChEMBL document CHEMBL5058577.

Reported values of Population Mitochondria Different-Phenotype (%) for individual entries
System: Fibroblast
Experiment: Multiplex assay against human fibroblast
Assay type: toxicity, cell-based
Details: 48 h, 1 µM, compound concentration 1 uM, replicate 2
Quantity: Population Mitochondria Different-Phenotype (%)

[
  {
    "Molecule": "C[C@H](N)COC(=O)[C@@H](CCCCN)NC(=O)Cc1c(-c2ccc3ccccc3c2)[nH]c2c1ccc1ccccc12",
    "Readout number": 6
  },
  {
    "Molecule": "NCCc1cn(S(=O)(=O)c2c(Cl)nc3sccn23)c2ccccc12.O=C(O)C(=O)O",
    "Readout number": 17
  },
  {
    "Molecule": "CC(C)c1noc(N2CCC(COc3ccc(-c4ccc(S(C)(=O)=O)cc4)nc3)CC2)n1",
    "Readout number": 4
  },
  {
    "Molecule": "CN1CCN(c2cc(-c3ccccc3)nc(N)n2)CC1",
    "Readout number": 6
  },
  {
    "Molecule": "CCCCC(=O)N(Cc1ccc(-c2ccccc2-c2nnn[nH]2)cc1)[C@H](C(=O)O)C(C)C",
    "Readout number": 3
  },
  {
    "Molecule": "CCCOc1ccc2[nH]cc(C3=CCNCC3)c2n1.Cl",
    "Readout number": 2
  },
  {
    "Molecule": "CC(C)(C)c1cc(NC(=O)Nc2ccc(-c3cn4c(n3)sc3cc(OCCN5CCOCC5)ccc34)cc2)no1",
    "Readout number": 8
  },
  {
    "Molecule": "Cl.NCCc1ccc(O)c(O)c1 [DOPAMINE HYDROCHLORIDE]",
    "Readout number": 3
  },
  {
    "Molecule": "Cc1onc(-c2ccccc2Cl)c1C(=O)N(C)c1ccc(Cl)cc1",
    "Readout number": 6
  },
  {
    "Molecule": "Cc1noc(-c2ccc(-c3ccc(CC(=O)O)cc3)cc2)c1NC(=O)O[C@H](C)c1ccccc1Cl",
    "Readout number": 3
  },
  {
    "Molecule": "Cc1sc2c(c1C)C(c1ccc(Cl)cc1)=N[C@@H](CC(=O)NCCCCCCCCNC(=O)COc1cccc3c1C(=O)N(C1CCC(=O)NC1=O)C3=O)c1nnc(C)n1-2 (some centres not stated)",
    "Readout number": 20
  },
  {
    "Molecule": "Cl.N=C(N)NC(=O)Cc1c(Cl)cccc1Cl [GUANFACINE HYDROCHLORIDE]",
    "Readout number": 11
  },
  {
    "Molecule": "N#Cc1c(Oc2cccc(OS(=O)(=O)CCCC(F)(F)F)c2)cccc1C(F)(F)F",
    "Readout number": 2
  },
  {
    "Molecule": "CC(=O)Nc1cccc2c1c(Sc1ccc(Cl)cc1)c(C)n2CC(=O)O",
    "Readout number": 2
  },
  {
    "Molecule": "CCc1cc2cc(NS(=O)(=O)c3ccc(C#N)cc3)ccc2n(CC)c1=O",
    "Readout number": 8
  },
  {
    "Molecule": "N#Cc1cc(F)cc(-c2nc(-c3ccc(F)cn3)no2)c1",
    "Readout number": 7
  },
  {
    "Molecule": "Br.CS(=O)(=O)Nc1c(O)ccc2c1CCCC2C1=NCCN1 (configuration not stated)",
    "Readout number": 9
  },
  {
    "Molecule": "O=C(CCCc1ccccc1)Nc1nc2ccccc2c(=O)s1",
    "Readout number": 6
  },
  {
    "Molecule": "CC(/C=C1\\SC(=S)N(CCCC(=O)Nc2ccc(C(=O)O)c(O)c2)C1=O)=C\\c1ccccc1",
    "Readout number": 6
  },
  {
    "Molecule": "O=C(NCCN1CCC(n2c(=O)[nH]c3cc(Cl)ccc32)CC1)c1ccc(F)cc1 [HALOPEMIDE]",
    "Readout number": 4
  },
  {
    "Molecule": "O=C1[C@H](Cc2ccc(O)cc2)N2C(=O)CCN(C(=O)NCc3ccccc3)[C@H]2CN1Cc1cccc2ccccc12",
    "Readout number": 6
  },
  {
    "Molecule": "CN(C)C(=O)Cn1cc(-c2ccc(-c3cncc4ccccc34)cc2)cn1",
    "Readout number": 7
  },
  {
    "Molecule": "COc1ccccc1N1CCN(C[C@@H](C(=O)NC(C)(C)C)c2ccccc2)CC1.Cl.Cl",
    "Readout number": 5
  },
  {
    "Molecule": "COc1cccc2c1c(NS(=O)(=O)c1ccc(Cl)s1)nn2Cc1cccc(CNC(=O)C(C)(C)O)c1",
    "Readout number": 3
  },
  {
    "Molecule": "CC[C@@H](C)Nc1nc(C)nc2c(-c3ccc(OC)nc3C)c(C)nn12",
    "Readout number": 4
  },
  {
    "Molecule": "Cc1c(CC(=O)O)c2cccnc2n1Cc1ccc(S(C)(=O)=O)cc1C(F)(F)F",
    "Readout number": 8
  },
  {
    "Molecule": "Cc1cnc(-c2cc(N3CCN(C(=O)CCS(C)(=O)=O)CC3)ncc2Cl)c(C)c1",
    "Readout number": 9
  },
  {
    "Molecule": "CCCCCC(O)/C=C/[C@H]1C(=O)CC(O)C1C/C=C\\CCCC(=O)O (some centres not stated)",
    "Readout number": 7
  },
  {
    "Molecule": "COC[C@@H](c1ccc(C(F)(F)F)cc1)N1CCN(C2(C)CCN(C(=O)c3c(C)ncnc3C)CC2)C[C@@H]1C.O=C(O)/C=C\\C(=O)O [VICRIVIROC MALEATE]",
    "Readout number": 19
  },
  {
    "Molecule": "CN[C@@H](C)C(=O)N[C@H](C(=O)N1CCC[C@H]1C(=O)Nc1snnc1-c1ccccc1)C1CCCCC1",
    "Readout number": 14
  },
  {
    "Molecule": "CCCCC1=NC2(CCCC2)C(=O)N1Cc1ccc(-c2ccccc2-c2nnn[nH]2)cc1",
    "Readout number": 1
  },
  {
    "Molecule": "CC(C)COc1ccc(CNC(=O)N(Cc2ccc(F)cc2)C2CCN(C)CC2)cc1",
    "Readout number": 12
  }
]
